These data points were gathered from patent US10966993B2.

- method_summary: Test on the solubility of glibenclamide in additive/cyclodextrin solutions
- Assay type: physicochemical
- reported_conditions: 25 °C, aqueous with cosolvent or surfactant or cyclodextrin, thermodynamic from solid, meglumine 0.1% (w/v), 2-hydroxypropyl-β-cyclodextrin 2.5% (w/v), read-out: Solubility
reported_endpoint: solubility at 1 h (µg/mL)
Answer format: numeric, µg/mL implied, no suffix.

*Q* Quick one: solubility at 1 h for COc1ccc(Cl)cc1C(=O)NCCc1ccc(S(=O)(=O)NC(=O)NC2CCCCC2)cc1 [glibenclamide] ?
*A* 1660

----------
- method_summary: Test on the solubility of glibenclamide in additive/cyclodextrin solutions
- Type: physicochemical
- reported_conditions: 25 °C, aqueous with cosolvent or surfactant or cyclodextrin, thermodynamic from solid, sodium hydrogen carbonate 4% (w/v), 2-hydroxypropyl-β-cyclodextrin 1.25% (w/v), read-out: Solubility
reported_endpoint: solubility at 1 h (µg/mL)
Answer format: numeric, µg/mL implied, no suffix.

*Q* Quick one: solubility at 1 h for COc1ccc(Cl)cc1C(=O)NCCc1ccc(S(=O)(=O)NC(=O)NC2CCCCC2)cc1 [glibenclamide] ?
*A* 590
